measured_target: UniProt Q96EB6
Sequence (Q96EB6 whole entry): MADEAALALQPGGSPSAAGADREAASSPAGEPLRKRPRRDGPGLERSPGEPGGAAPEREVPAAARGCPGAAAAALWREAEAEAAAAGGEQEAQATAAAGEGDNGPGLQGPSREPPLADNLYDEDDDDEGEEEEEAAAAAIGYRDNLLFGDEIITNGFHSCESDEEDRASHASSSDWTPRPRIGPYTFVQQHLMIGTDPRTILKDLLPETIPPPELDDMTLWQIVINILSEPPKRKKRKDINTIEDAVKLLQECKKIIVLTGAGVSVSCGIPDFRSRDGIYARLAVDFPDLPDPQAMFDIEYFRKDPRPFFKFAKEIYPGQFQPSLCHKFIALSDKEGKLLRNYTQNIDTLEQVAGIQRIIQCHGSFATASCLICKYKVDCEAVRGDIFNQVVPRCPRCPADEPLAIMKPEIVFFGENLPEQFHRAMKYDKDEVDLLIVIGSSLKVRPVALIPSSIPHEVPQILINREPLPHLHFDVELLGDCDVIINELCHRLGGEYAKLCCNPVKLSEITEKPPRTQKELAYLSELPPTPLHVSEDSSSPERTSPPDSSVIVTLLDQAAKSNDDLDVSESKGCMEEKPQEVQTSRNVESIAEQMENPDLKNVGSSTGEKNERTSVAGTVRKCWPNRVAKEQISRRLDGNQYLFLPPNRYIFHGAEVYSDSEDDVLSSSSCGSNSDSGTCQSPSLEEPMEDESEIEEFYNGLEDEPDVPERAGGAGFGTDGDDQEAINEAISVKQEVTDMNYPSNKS
test_method_notes: Activation of SIRT1 (unknown origin) at 50 uM relative to control
Overview of reported Activity across a group of molecules:

molecule_smiles: COc1ccccc1N1CCN(Cc2ccc3oc4c(Cl)cccc4c(=O)c3c2)CC1
Activity [%]: -17.1
--
molecule_smiles: COc1cccc(N2CCN(Cc3ccc4oc5c(Cl)cccc5c(=O)c4c3)CC2)c1
Activity [%]: -117
--
molecule_smiles: COc1ccccc1CNCc1ccc2oc3c(Cl)cccc3c(=O)c2c1
Activity [%]: -10.3
--
molecule_smiles: COc1ccccc1CCNCc1ccc2oc3c(Cl)cccc3c(=O)c2c1
Activity [%]: -22.1
--
molecule_smiles: COc1ccc(CNCc2ccc3oc4c(Cl)cccc4c(=O)c3c2)cc1OC
Activity [%]: -19.5
--
molecule_smiles: COc1ccc(OC)c(CN2CCN(Cc3ccc4oc5c(Cl)cccc5c(=O)c4c3)CC2)c1
Activity [%]: -12.4
